# testedTarget: T1, PUF4 RNA-binding domain (Saccharomyces cerevisiae, UniProt P25339 537-888)
# T1 sequence: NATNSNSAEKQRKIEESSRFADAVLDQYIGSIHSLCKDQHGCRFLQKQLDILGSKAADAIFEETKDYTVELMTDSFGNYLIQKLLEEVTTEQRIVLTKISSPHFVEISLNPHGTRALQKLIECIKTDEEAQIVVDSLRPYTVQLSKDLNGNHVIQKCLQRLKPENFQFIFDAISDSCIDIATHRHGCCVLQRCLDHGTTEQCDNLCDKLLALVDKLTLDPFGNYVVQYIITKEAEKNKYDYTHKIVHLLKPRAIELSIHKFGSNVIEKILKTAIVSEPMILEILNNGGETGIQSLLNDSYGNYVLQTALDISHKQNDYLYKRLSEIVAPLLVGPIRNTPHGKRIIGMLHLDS
# methodNotes: Mg; RNA-MaP; 20 mM Na-HEPES pH 7.4, 30 mM KOAc, 0.75 mM MgCl2, 0.1% Tween-20, 5% glycerol, 0.1 mg/mL BSA, 2 mM DTT; 25 C; 0.0125-409.6 nM protein
# testSettings: tags: N-His6-TEV cleaved; C-SNAP kept, Cy3B-labelled; label: tethered on chip by stalled RNA polymerase
This section presents binders with their documented pKd values.
In simple prose, pKd is minus the logarithm base ten of a concentration in moles per litre.

Known results for binders:
// sample Id_ii_S2_P5E.3_K5.2_C5.2_[T-1G]_H5.2_A5.1_F5.1_T5.2_[T11G]_[A12T] (ssRNA) RNA: UUUGAUUAAUAUGAUAUCGUUCUUUCUCGUAUAUUAUUAGUUUCUUUCUCGAUAUCAUAUUAAUCUUU , its pKd was 7.42

Per the records, this binder ( Ic_S2_P5E.1_K5.1_C5.1_H5.1_A5.1_[T6G]_[A7C]_F5.1_[T8C]_[T9C]_[A10T]_T5.1 (ssRNA) RNA: UUUGAUUAAUAUGAUAUCGUUCUUUCUUGUAUGCCCUUUCUUUCUCGAUAUCAUAUUAAUCUUU ) has pKd equal to 6.24

Entry under test: Id_ii_S4_P3E.2_K3.1_C3.2_[C-2G]_H3.1_A3.1_F3.1_T3.2_[T9A]_[A10T] (ssRNA) RNA: UUUGACAACUGAUCGUUCUUUCUGUUGUAUAUAAUUUCUUUCUCGAUCAGUUGUCUUU . Its pKd was 8.47

Entry under test: UCUCUUUGUAUUACCUUAUCUCUU (ssRNA) [Ie_S1_P5E.1_K5.1_C5.1_H5.1_A5.1_[+7CC]_F5.1_T5.1] . Its pKd was 7.12

get_value(item= Ic_S2_P4E.1_K4.1_C4.1_H4.1_A4.1_[T5A]_[A6C]_F4.1_[T8G]_[A9T]_T4.1 (ssRNA) RNA: UUUGAUUAAUAUGAUAUCGUUCUUUCUUGUAACUGUUUCUUUCUCGAUAUCAUAUUAAUCUUU , readout=pKd) returns 7.21

Here's the next entry for you.
Per the record, Id_iii_S2_P5E.9_K5.5_C5.3_H5.1_A5.2_F5.2_T5.2_[A12G] (ssRNA) RNA: UUUGAUUAAUAUGAUAUCGUUCUUUCUUCUUGUAAUAAAAUGUUCUUUCUCGAUAUCAUAUUAAUCUUU has pKd of 6.72
